These data points were gathered from patent US5290795A.

biological target: 5-HT3 receptor (Mus musculus, UniProt P23979); construct: Harvested cells were homogenized in Tris buffer; endogenous in cells; test: 5-HT3 receptor binding to N1E-115 neuroblastoma cells (3H-Quipazine displacement)
Sequence (P23979 24-489): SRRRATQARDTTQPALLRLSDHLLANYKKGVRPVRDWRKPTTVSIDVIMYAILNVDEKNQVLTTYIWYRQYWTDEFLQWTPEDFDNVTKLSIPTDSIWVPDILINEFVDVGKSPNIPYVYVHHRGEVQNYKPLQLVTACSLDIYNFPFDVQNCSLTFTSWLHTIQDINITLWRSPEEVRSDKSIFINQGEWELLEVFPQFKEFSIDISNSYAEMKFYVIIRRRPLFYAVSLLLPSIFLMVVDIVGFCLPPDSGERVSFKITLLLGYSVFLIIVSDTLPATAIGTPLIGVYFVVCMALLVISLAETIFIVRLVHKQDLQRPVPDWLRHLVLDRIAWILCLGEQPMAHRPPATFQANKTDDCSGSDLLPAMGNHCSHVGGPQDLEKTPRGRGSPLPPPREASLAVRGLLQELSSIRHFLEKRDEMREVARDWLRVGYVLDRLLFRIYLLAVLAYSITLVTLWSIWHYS
measureName: pIC50
Answers are plain numbers, as −log10 of the molar value.

* CCCCc1noc(-c2sccc2NC(=O)N[C@H]2C[C@H]3CCC[C@@H](C2)N3C)n1 | 8.64

Continue with the next molecule.
So the reported pIC50 for CN1[C@@H]2CCC[C@H]1C[C@@H](NC(=O)Nc1ccsc1-c1nc(C3CC3)no1)C2 , on 5-HT3 receptor (Mus musculus, UniProt P23979), turned out to be 8.17
